Hey, just so you know, these numbers are from PubChem BioAssay (NCI).

- Test system: SF-539 CNS
- Test Name: NCI-60 one-dose screen, 48 h (100 = growth as untreated, 0 = no growth, -100 = all killed)
- Applied Conditions: 10 µM
The panel holds about 83,000 compounds, 20% with a hit somewhere; the sample as a whole holds those more often.
Entry flag: MET if growth reaches 20%; NOT MET if it does not.

>>> answer_label("COc1ccc(-c2cc(-c3cc(C(=O)c4ccccc4)n4ccc(C)cc34)nc(N)c2C#N)cc1")
"NOT MET"
>>> answer_label("Nc1n[nH]c2cccc(C#Cc3cccc(NC(=O)Nc4cc(C(F)(F)F)cc(C(F)(F)F)c4)c3)c12")
"NOT MET"
>>> answer_label("Cn1cc(-c2cc(N)n3nc(-c4c[nH]c5ccc(Br)cc45)cc3n2)c2cc(Br)cnc21")
"NOT MET"
>>> answer_label("Cc1ccc(-c2nc3ccc(C(=O)N=Nc4c(O)[nH]c5ccc([N+](=O)[O-])cc45)cc3[nH]2)cc1")
"MET"
>>> answer_label("O=C(c1ccc(O)cc1)C1[C@H](c2ccc(Br)cc2)[C@@H](c2ccccc2)NC12C(=O)Nc1ccc(Br)cc12 (some centres undefined)")
"NOT MET"
>>> answer_label("Cc1ccc(-c2nc3ccc(C(=O)N=Nc4c(O)[nH]c5ccc(Cl)cc45)cc3[nH]2)cc1")
"MET"
>>> answer_label("C#Cc1ccc(S(=O)(=O)Nc2cccc(-c3csc(NC(C)=O)n3)c2)cc1")
"MET"
>>> answer_label("Cc1cc(C)nc(SCC(=O)Nc2ccc(S(N)(=O)=O)cc2)n1")
"MET"
>>> answer_label("CN1CCN(c2ccc(Nc3nc(NCCCNC(=O)c4ccc(Cl)cc4)c4sccc4n3)cc2)CC1")
"NOT MET"

###

Listing of recorded growth by entry.
- Test system: SF-268 CNS
- Test Name: NCI-60 one-dose screen, 48 h (100 = growth as untreated, 0 = no growth, -100 = all killed)
- Applied Conditions: 10 µM
This is part of a sample that, as a whole, favours compounds with a hit. Of some 83,000 tested, about 20% had one in any assay.
Test Readout: growth (%)

>>> measured_number("CCCCSc1nc(Nc2ccc(/C(C)=N/NC(N)=S)cc2)c(C#N)c(-c2ccccc2)n1")
67
>>> measured_number("O=C(NCCCCCCCCCC[P+](c1ccccc1)(c1ccccc1)c1ccccc1)c1ccc(-n2nc(-c3ccccc3O)nc2-c2ccccc2O)cc1")
-28.8
>>> measured_number("COc1ccc(-c2cc(C(=O)N=Nc3c(O)[nH]c4ccc(F)cc34)c3ccccc3n2)cc1")
47.9
>>> measured_number("COc1ccc(C2NC(=S)NC(C)=C2C(=O)OC(C)C)cc1OC (centres undefined)")
107
>>> measured_number("Cc1ccc2nc(-c3ccc(-c4nnc(SCC(=O)Nc5ccc(Cl)cc5)o4)cc3)[nH]c2c1")
68.6
>>> measured_number("O=C(NCCCCC(c1ccc(F)cc1)c1ccc(F)cc1)NCCCc1cccnc1")
52.4
>>> measured_number("O=c1c2ccccc2nc(COc2ccccc2)n1/N=C/c1ccc(N2CCOCC2)cc1")
26.4
>>> measured_number("CCCCCc1ccc(S(=O)(=O)N(C(C)=O)c2cc(-c3csc(N(C)C(C)=O)n3)ccc2N2CCN(C)CC2)cc1")
65.9
>>> measured_number("COc1cnc2c(c1)C(=O)c1c-2n(CCCNC(C)C)c(=O)c2cc(OC)c(OC)cc12")
41.8
>>> measured_number("O=C(Nc1ccc(I)cc1)Nc1nc2ccc([N+](=O)[O-])cc2s1")
-83.7
>>> measured_number("Nc1cccnc1/C=N/NC(=S)NCCNC(=O)c1ccc(-n2nc(-c3ccccc3O)nc2-c2ccccc2O)cc1")
32.8
>>> measured_number("Cc1ccc(-c2nc3ccc(C(=O)N=Nc4c(O)[nH]c5ccc(Cl)cc45)cc3[nH]2)cc1")
-33.4
>>> measured_number("O=C1CCC(N2Cc3c(C#CCCCNC(=O)c4ccc(NC(=O)[C@@H]5NC6(CCCCC6)[C@@]6(C(=O)Nc7cc(Cl)ccc76)[C@H]5c5cccc(Cl)c5F)cc4)cccc3C2=O)C(=O)N1 (some centres undefined)")
70.3
>>> measured_number("CN1C(=O)/C(=C/c2nccs2)SC1=S")
104
>>> measured_number("O=C(N/N=C/c1ccc(-c2cccc([N+](=O)[O-])c2)o1)c1[nH]c2ccc(Br)cc2c1-c1ccccc1")
36
>>> measured_number("OCCNc1oc(-c2ccccc2)nc1[P+](c1ccccc1)(c1ccccc1)c1ccccc1")
5.6
>>> measured_number("O=C1NC(=NC23CC4CC(CC(C4)C2)C3)N/C1=C\\c1ccc2ncsc2c1")
-11.5
>>> measured_number("CCCn1c(=O)c2[nH]c(-c3ccc(OCc4nc5ccc(C(F)(F)F)cc5[nH]4)cc3)nc2n(CCC)c1=O")
57.2
>>> measured_number("O=C(c1ccc(O)cc1)C1[C@H](c2ccccc2Br)[C@@H](c2ccccc2)NC12C(=O)Nc1ccc(Br)cc12 (some centres undefined)")
40
>>> measured_number("Cc1ccc(C(=O)NCCCNc2nc(Nc3ccc(N4CCN(C)CC4)cc3)nc3ccsc23)cc1")
60.4
>>> measured_number("CC(=O)c1cc(C(=O)N2c3ccccc3Sc3ccccc32)n2ccc(C)cc12")
49.4
>>> measured_number("O=C(CSc1nnc(-c2c[nH]c3ccccc23)n1-c1ccccc1)Nc1ccc(C(=O)/C=C/c2ccccc2Cl)cc1")
66.5
>>> measured_number("CC(=O)Nc1ccc(-c2cn(-c3cccc(C(=O)Nc4cc(C(F)(F)F)cc(C(F)(F)F)c4)c3)nn2)cn1")
-7.7
>>> measured_number("Cc1ccc(/C(N)=N/c2sc(-c3ccccc3)nc2-c2ccccc2)cc1")
79.2
>>> measured_number("COc1cc(C2CC(c3ccc(C)cc3)=Nc3c(N)nc(N)nc3N2)ccc1Oc1nc(Nc2ccc(F)cc2)nc(N(C)C)n1 (centres undefined)")
54.7
>>> measured_number("O=c1oc2ccc(-c3ccc(F)cc3F)cc2c(=O)n1-c1ccc(F)cc1")
2.76
>>> measured_number("COc1cc2c3c(n(CCCN4CCOCC4)c(=O)c2cc1OC)-c1nc2c(cc1C3=O)OCO2")
21.9
>>> measured_number("C/C(=C\\CSc1ccccc1C(=O)O)CCCC(C)CCCC(C)CCCC(C)C (centres undefined)")
51.5
>>> measured_number("CCOC(=O)C(Cc1ccccc1)N1C(=O)/C(=C/N2N=C(c3ccc(OC)cc3)CC2c2ccc3ccccc3c2)SC1=S (centres undefined)")
30.2
>>> measured_number("CC1CC(c2ccc(N(C)C)cc2)=NN1c1nc(O)c(C2=c3cc(Br)ccc3=NC2=O)s1 (centres undefined)")
91.7
>>> measured_number("CCCCCCCCCCCCCCCCCCCC(=O)NCCc1c[nH]c2ccc(OC(=O)NOCCOCCOCCOCCOCCOCCOCCOCCOCCOCCOCCOCCOCCOCCOCCOCCOCCOCCOCCOCCOCCOCCOC)cc12")
16.5
>>> measured_number("COC(=O)c1c(C(=O)OC)c2n(c1C)[C@@H]([C@@H](C)[C@H]1CC[C@H]3[C@@H]4CCC5=CC(=O)CC[C@]5(C)[C@H]4CC[C@]13C)SC2")
56.4
>>> measured_number("O=C(O)CCCCCCCCCCN1C(=O)/C(=C/c2cnc(-c3ccccc3)s2)SC1=S")
112
>>> measured_number("N[C@@H](CSSC[C@H](N)C(=O)Nc1ccc(OCC2CCCC2)cc1)C(=O)Nc1ccc(OCC2CCCC2)cc1")
-73.1
